The values you see were collected from patent US20220315624A1.

- Tested on: S. pyogenes ATCC 19615
- Assay: MIC broth microdilution
- Type: cell-based
- Condition info: Streptococcus pyogenes, ATCC19615, 20 h; S. pyogenes ATCC 19615; CAMHB with 3% lysed horse blood; read-out: MIC
Parameter: MIC (µg/mL)

CC(C)(O/N=C(\C(=O)N[C@@H]1C(=O)N2C(C(=O)[O-])=C(C[n+]3ccccc3)CS[C@H]12)c1csc(N)n1)C(=O)O [Ceftazidime, reference compound] | 0.12
C=C(NC(=O)c1csc(C2=N[C@@H]3c4csc(n4)[C@H]4NC(=O)c5csc(n5)[C@H]([C@](C)(O)[C@@H](C)O)NC(=O)C5CSC(=N5)/C(=C/C)NC(=O)[C@H]([C@@H](C)O)NC(=O)c5csc(n5)[C@]3(CC2)NC(=O)[C@H](C)NC(=O)C(=C)NC(=O)[C@H](C)NC(=O)[C@H]([C@@H](C)CC)N[C@@H]2C=Cc3c([C@H](C)O)cc(nc3[C@H]2O)C(=O)O[C@@H]4C)n1)C(=O)NC(=CNC(=O)c1cccc(/C=N/OC(C)(C)C(=O)O)c1)C(N)=O [RJS-13] | 0.015
C=C(NC(=O)c1csc(C2=N[C@@H]3c4csc(n4)[C@H]4NC(=O)c5csc(n5)[C@H]([C@](C)(O)[C@@H](C)O)NC(=O)C5CSC(=N5)/C(=C/C)NC(=O)[C@H]([C@@H](C)O)NC(=O)c5csc(n5)[C@]3(CC2)NC(=O)[C@H](C)NC(=O)C(=C)NC(=O)[C@H](C)NC(=O)[C@H]([C@@H](C)CC)N[C@@H]2C=Cc3c([C@H](C)O)cc(nc3[C@H]2O)C(=O)O[C@@H]4C)n1)C(=O)NC(=CNC(=O)c1cccc(/C=N/O)c1)C(N)=O [RJS-17] | 0.004
